Biological target: Putative citrate synthase 2 (Mycobacterium tuberculosis, UniProt P9WPD3)
Sequence (P9WPD3 whole entry): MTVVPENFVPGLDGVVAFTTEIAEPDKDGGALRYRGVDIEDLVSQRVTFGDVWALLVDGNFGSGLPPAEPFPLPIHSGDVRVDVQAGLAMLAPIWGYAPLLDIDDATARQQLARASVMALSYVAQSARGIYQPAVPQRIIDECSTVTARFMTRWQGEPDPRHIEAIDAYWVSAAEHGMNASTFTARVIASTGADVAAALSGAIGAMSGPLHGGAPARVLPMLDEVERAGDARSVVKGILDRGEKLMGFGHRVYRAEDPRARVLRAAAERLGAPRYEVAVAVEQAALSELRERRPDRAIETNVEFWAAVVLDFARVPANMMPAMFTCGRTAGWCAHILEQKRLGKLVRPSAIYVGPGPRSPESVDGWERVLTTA
PROPERTY: IC50 (µM)
Write the answer as a number in µM, unit excluded.

[
  {
    "COMPOUND": "C=C1C(=O)OC2(C(=O)Nc3ccccc32)C1c1ccccc1 (configuration not stated)",
    "ASSAY_TARGET": "Putative citrate synthase 2 (Mycobacterium tuberculosis, UniProt P9WPD3)",
    "DATA_VALUE": 10.9
  }
]

From here, focus on the item given below.
Which value of IC50 has been reported for C=C1CC2(OC1=O)C(=O)Nc1ccc(I)cc12 (configuration not stated) in the records?
6.6
